biological target: T1, human SIRP-α v2 (human); test: SPR
T1 construct: also called Human v2; Human V2
T1 sequence (chain, as listed by the source limits assumed): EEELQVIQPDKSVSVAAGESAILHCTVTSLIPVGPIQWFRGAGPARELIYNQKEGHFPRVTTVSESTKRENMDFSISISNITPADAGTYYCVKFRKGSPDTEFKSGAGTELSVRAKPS
Record form. Attribute: Kd. Fill in for each entry.

Worked set:
binder	valueType	reported
antibody 122 (antibody, V domains shown, also called S122) VH: VQLVESGGGVVRPGESLRLSCAASGFRFSNFAMTWVRQAPGEGLEWVSTIGSGDTYYADSVKGRFTISRDNSKNTLYLQMNSLRAEDTAVYYCAKDSTVSWSGDFFDYWGLGTLVTVSS VL: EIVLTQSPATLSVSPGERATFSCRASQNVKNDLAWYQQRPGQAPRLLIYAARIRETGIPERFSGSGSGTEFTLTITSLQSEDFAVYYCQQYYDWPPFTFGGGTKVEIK	Kd	0.0778 nM
antibody 16 (antibody, V domains shown, also called S16) VH: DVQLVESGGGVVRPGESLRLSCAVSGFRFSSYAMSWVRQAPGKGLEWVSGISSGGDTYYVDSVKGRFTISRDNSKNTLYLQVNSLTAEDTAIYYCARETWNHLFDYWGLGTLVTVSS VL: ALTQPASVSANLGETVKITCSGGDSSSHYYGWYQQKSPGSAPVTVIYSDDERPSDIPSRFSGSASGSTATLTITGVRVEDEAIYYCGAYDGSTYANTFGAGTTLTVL	Kd	< 0.001 nM

Next item in the queue.
Lookup: Please supply the value of reported Kd for the item antibody 132 (antibody, V domains shown, also called AB132; S132) VH: DVQLVESGGGVVRPGESLRLSCAASGFSFRSYAMNWVRQAPGEGLEWVSRINSGGGGTDYADSVKGRFTISRDNSKNTLYLQMNSLRAEDTAVYYCAKQYDWNSFFDYWGLGALVTVSS VL: ETVLTQSPATLSVSPGERATLSCRASQTVGSKLAWHQQKPGQAPRLLIYDASNRATGIPDRFSGSGSGTDFTLTISSPQTEDSAVYYCQQYYYWPPYRFGGGTKVEIK
Found: 1.86 nM
